// provenance: paper PMC9608075

# assayDetails: in vivo
# details: male, CD-1, mouse, po, 50 mg/kg, Cmax
measure: Cmax (µM)

N[C@H](Cc1ccc(O)c(O)c1)C(=O)O	99

###

# assayDetails: in vivo
# details: male, CD-1, mouse, po, 50 mg/kg, AUCBrain/Plasma ratio (brain penetration index)
measure: Kp

N[C@H](Cc1ccc(O)c(O)c1)C(=O)O	0.03

###

# assayDetails: in vivo
# details: male, CD-1, mouse
measure: bioavailability (%)

N[C@H](Cc1ccc(O)c(O)c1)C(=O)O	47.7

###

# assayDetails: in vivo
# details: male, CD-1, mouse, iv, 10 mg/kg, Cl
measure: clearance (mL/min/kg)

N[C@H](Cc1ccc(O)c(O)c1)C(=O)O	28

###

# assayDetails: in vivo
# details: male, CD-1, mouse, po, 50 mg/kg, Tmax
measure: Tmax (min)

N[C@H](Cc1ccc(O)c(O)c1)C(=O)O	30

###

# assayDetails: Metabolic stability in mouse plasma
# Format: in vitro ADME
# details: 37 °C, 60 min
Listed below: remaining at 1 h, 10 µM values for each entry.
measure: remaining at 1 h, 10 µM (%)

N[C@H](Cc1ccc(O)c(O)c1)C(=O)O	100
O=C(O)/C=C/c1ccc(O)c(O)c1	56
N[C@@H](Cc1ccc(O)c(O)c1)C(=O)O [Compound 1, L-DOPA, reference compound]	64

###

# testTarget: human recombinant GCPII (Homo sapiens, UniProt Q04609)
# Sequence (Q04609 whole entry): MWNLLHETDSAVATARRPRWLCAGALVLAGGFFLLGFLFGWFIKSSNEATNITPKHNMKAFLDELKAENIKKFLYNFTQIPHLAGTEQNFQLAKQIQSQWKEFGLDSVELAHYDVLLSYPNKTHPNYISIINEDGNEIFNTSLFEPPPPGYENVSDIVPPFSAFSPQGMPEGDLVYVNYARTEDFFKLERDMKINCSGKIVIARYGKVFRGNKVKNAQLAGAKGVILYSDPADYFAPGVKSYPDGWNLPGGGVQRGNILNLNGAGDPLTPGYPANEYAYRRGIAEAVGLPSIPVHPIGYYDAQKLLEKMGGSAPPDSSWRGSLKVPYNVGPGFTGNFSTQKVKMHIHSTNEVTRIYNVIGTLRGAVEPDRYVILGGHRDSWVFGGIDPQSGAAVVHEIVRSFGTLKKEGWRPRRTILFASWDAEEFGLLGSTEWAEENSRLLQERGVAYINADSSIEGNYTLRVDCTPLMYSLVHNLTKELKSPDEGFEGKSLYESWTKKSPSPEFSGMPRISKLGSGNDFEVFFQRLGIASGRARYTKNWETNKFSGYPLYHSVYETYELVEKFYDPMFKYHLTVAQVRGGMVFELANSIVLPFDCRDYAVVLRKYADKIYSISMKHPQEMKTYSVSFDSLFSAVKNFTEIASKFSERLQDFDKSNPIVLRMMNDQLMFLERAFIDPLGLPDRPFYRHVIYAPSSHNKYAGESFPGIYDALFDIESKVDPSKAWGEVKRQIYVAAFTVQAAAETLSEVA
# assayDetails: GCPII activity assay (radioactivity-based, NAA-[3H]-G)
# details: human recombinant GCPII
# Method: Inhibition potencies against GCPII (IC50 values) were determined using previously described methods with minor modifications. […] The radioactivity corresponding to [^3H]-G was determined with a scintillation counter. […] The inhibitory potencies of the catechols were determined using a modified radioactivity-based assay involving human recombinant GCPII enzyme as previously reported. […]
measure: IC50 (µM)

N[C@H](Cc1ccc(O)c(O)c1)C(=O)O [Compound 10, D-DOPA]	0.2
N[C@@H](Cc1ccc(O)c(O)c1)C(=O)O [Compound 1, L-DOPA, reference compound]	0.6
O=C(O)CCc1ccc(O)c(O)c1 [Compound 8]	4
CC(=O)N[C@@H](Cc1ccc(O)c(O)c1)C(=O)O [Compound 6]	20
N[C@@H](Cc1ccc(O)cc1)C(=O)O [Compound 2, Tyr]	100
O=C(O)/C=C/c1ccc(O)c(O)c1 [Compound 9, Caffeic Acid]	0.3

###

# assayDetails: in vivo
# details: male, CD-1, mouse, po, 50 mg/kg
# Experimental: All of the formulations were freshly prepared prior to the dosing. […] Brain and plasma collection were carried out as described above. […] Plasma and brain tissue samples were processed by matching the dilutions of calibration standards of the respective tissues. […] The analyte was monitored using a ThermoScientific […] triple-quadrupole mass-spectrometric detector equipped with an electrospray interface, and operated in negative ion mode. […]
measure: AUC(0-t)

N[C@H](Cc1ccc(O)c(O)c1)C(=O)O	72.7 µM·h

###

# assayDetails: in vitro
# Assay type: in vitro ADME
# details: mouse, brain homogenate
measure: remaining at 0.5 h, 10 µM (%)

N[C@@H](Cc1ccc(O)c(O)c1)C(=O)O [Compound 1, L-DOPA, reference compound]	0

###

# assayDetails: Initial two time-point pharmacokinetic study in mice
# Assay type: in vivo, mouse
# details: male, CD-1, mouse, plasma, 50 mg/kg PO, one hour post dose, read-out: plasma levels
measure: concentration at 1 h (µM)

N[C@H](Cc1ccc(O)c(O)c1)C(=O)O	21.5

###

# assayDetails: in vivo
# details: male, CD-1, mouse, iv, 10 mg/kg, clearance (Cl)
measure: clearance

N[C@H](Cc1ccc(O)c(O)c1)C(=O)O	28 mL/min/kg

###

# assayDetails: in vivo
# details: male, CD-1, mouse, iv, 10 mg/kg, half-life (t1/2)
measure: half-life (min)

N[C@H](Cc1ccc(O)c(O)c1)C(=O)O [Compound 10, D-DOPA]	21

###

# assayDetails: in vitro
# Assay type: in vitro ADME
# details: mouse, brain homogenate
measure: remaining at 1 h, 10 µM

O=C(O)/C=C/c1ccc(O)c(O)c1 [Compound 9, Caffeic Acid]	98%
N[C@H](Cc1ccc(O)c(O)c1)C(=O)O [Compound 10, D-DOPA]	82%

###

# IC50 annotations
# testTarget: human recombinant GCPII (Homo sapiens, UniProt Q04609)
# assayDetails: GCPII activity assay (radioactivity-based, NAA-[3H]-G)
# details: human recombinant GCPII
# Procedure: Inhibition potencies against GCPII (IC50 values) were determined using previously described methods with minor modifications. […] The radioactivity corresponding to [^3H]-G was determined with a scintillation counter. […] The inhibitory potencies of the catechols were determined using a modified radioactivity-based assay involving human recombinant GCPII enzyme as previously reported. […]
measure: IC50

C[C@](N)(Cc1ccc(O)c(O)c1)C(=O)O	> 100 µM
NC(Cc1ccc(=O)n(O)c1)C(=O)O (stereo not drawn)	> 100 µM
NCCc1ccc(O)c(O)c1 [Compound 7, Dopamine, reference compound]	> 100 µM
